The following binders are shown together with reported MFI values.
target-of-assay: T1, human Siglec-7 expressed on human cells (primary monocytes, dendritic cells, macrophages, NK cells, … (human, UniProt Q9Y286 19-467))
T1 construct: Endogenous receptor on cells; also called Siglec-7 receptor
T1 sequence (Q9Y286 19-467): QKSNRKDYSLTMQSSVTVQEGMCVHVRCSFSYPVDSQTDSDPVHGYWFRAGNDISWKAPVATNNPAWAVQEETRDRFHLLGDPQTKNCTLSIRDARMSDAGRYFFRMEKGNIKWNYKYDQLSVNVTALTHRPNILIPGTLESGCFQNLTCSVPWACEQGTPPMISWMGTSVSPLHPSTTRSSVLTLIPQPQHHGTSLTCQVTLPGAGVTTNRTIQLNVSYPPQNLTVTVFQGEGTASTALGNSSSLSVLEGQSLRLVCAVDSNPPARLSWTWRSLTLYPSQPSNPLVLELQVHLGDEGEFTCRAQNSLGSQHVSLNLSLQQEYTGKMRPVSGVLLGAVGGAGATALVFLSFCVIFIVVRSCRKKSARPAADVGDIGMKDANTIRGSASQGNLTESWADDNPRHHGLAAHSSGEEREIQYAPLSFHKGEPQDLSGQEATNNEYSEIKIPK
procedure-details: FACS, human primary monocytes, 10 ug/ml mAb
Could you keep your reply to the number by itself?

Use the examples below as a reference point.
| binder | MFI |
| --- | --- |
| anti-Siglec-7 antibody 2G4 (antibody, V domains shown, Variable domains assembled from FR and CDR entries) VH: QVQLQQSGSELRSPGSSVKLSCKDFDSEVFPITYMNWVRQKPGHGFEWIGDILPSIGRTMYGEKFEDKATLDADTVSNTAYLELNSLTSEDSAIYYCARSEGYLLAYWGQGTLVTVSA VL: DIQMTQSLSYLSVSLGGRVTITCKASDHINNWLAWYQQKPGNAPRLLISGATSLETGFPSRFSGSGSGKDYTLSITSLQTEDVATYYCHQYWNTPYTFGGGTRLEIK | 512 |
| anti-Siglec-7 antibody 7F12 (antibody, V domains shown, Variable domains assembled from FR and CDR entries) VH: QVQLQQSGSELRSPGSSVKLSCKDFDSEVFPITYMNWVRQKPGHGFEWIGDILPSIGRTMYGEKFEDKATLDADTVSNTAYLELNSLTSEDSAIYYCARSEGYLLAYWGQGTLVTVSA VL: DVLMTQTPLSLPVSLGDQASISCRSSQSLVHSTGNTYLHWYLQKPGQSPKLLIYKVSNRFSGVPDRFSGSGAGTDFTLKISRVEAEDLGVYFCSQNTHVPYTFGGGTKLEIK | 472 |
| anti-Siglec-7 antibody 4E3 (antibody, V domains shown, VL FR1 there holds a Z); also called S7-4E3; mAb S7-4E3) VH: EVQLVESGGALVKPGGSLKISCAVSGFIFSNYDMSWVRQNPEKRLEWVATISSGGGYTYYPDSVKGRFTISRDNAKNALYLQMSSLRSEDTALYYCTRHGYGNYDWYFDVWGAGATVTVSS VL: QIVLTQSPAILSASPGEKVTMTCSANSSFTYMYWYQQKPGSSPRLLIFDTSNLASGVPIRFSGSGSGTSYSLTISRMEAEDTATYYCQQWSSSPLTFGAGTKLELK | 362 |

Please report the recorded MFI for anti-Siglec-7 antibody 4D7 (antibody, V domains shown, Variable domains assembled from FR and CDR entries) VH: QVQLQQSGAELVKPGASVKLSCKTSGYTFTNYWINWVKQRPGQGLEWIGNIYSGSSRTNYNEKFKSKATLTVDTSSSTAYMQLSSLTSDDSAVYYCAREGLRAMDYWGQGTSVTVSS VL: NZMTQFQKFMSTSVGDRVSLTCKASQKVGTNVAGFQQKPGHSPKAGIYSASTRHRGVQDRFTARGLGSDFILPITTZQLEDLAEYZCHQGNSVQYTFGGGTKLEIK .
262

anti-Siglec-7 antibody 1A12 (antibody, V domains shown, also called 1Al2) VH: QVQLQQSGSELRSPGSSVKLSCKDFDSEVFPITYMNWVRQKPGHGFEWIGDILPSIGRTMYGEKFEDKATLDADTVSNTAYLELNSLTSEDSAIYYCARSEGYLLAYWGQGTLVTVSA VL: DVZMTQTPLSLPVSLGDQASISCRSSQSLVHSTGNTYLHWYLQKPGQSPKLLIYKVSNRFSGVPDRFSGSGAGTDFTLKISRVEAEDLGVYFCSQNTHVPYTFGGGTKLEIK ?
505
